Substrate: PET
Test: Proxy for plastic degradation [HPLC-UV]
Details: pH 9; 30 °C; 24 h
reported_property: Proxy for plastic degradation (µM)
Write the number in µM without appending the unit.

I'd like to know its Proxy for plastic degradation. The protein in question is unnamed (protein) MNFPRASRLMQAAVLGGLMAVSAAATAQTNPYARGPNPTAASLEASAGPFTVRSFTVSRPSGYGAGTVYYPTNAGGTVGAIAIVPGYTARQSSIKWWGPRLASHGFVVITIDTNSTLDQPDSRSSQQMAALRQVASLNGTSSSPIYGKVDTARMGVMGWSMGGGGSLISAANNPSLKAAAPQAPWDSSTNFSSVTVPTLIFACENDSIAPVNSSALPIYDSMSRNAKQFLEINGGSHSCANSGNSNQALIGKKGVAWMKRFMDNDTRYSTFACENPNSTRVSDFRTANCS 5.3

I'd like to know its Proxy for plastic degradation. The protein in question is unnamed (protein) MNFPRASRLMQAAVLGGLMAVSAAATAQTNPYARGPNPTAASLEASAGPFTVRSFTVSRPSGYGAGTVYYPTNAGGTVGAIAIVPGYTARQSSIKWWGPRLASHGFVVITIDTNSTLDQPSSRSSQQMAALRQVASLNGTSSSPIYGKVDTARMGVMGWSMGGGGSLISAANNPSLKAAAPQAPWHSSTNFSSVTVPTLIFACENDSIAPVNSSALPIYDSMSRNAKQFLEINGGSHSCANSGNSNQALIGKKGVAWMKRFMDNDTRYSTFACENPNSTRVSDFRTANCS 10.4
